Collected pIC50 values appear next to each entry.
SYSTEM NAME: His6-GSK-3β (Homo sapiens, UniProt P49841)
Construct: made in house; host or cells: Sf21 insect cells (baculovirus)
Sequence (P49841 2-419): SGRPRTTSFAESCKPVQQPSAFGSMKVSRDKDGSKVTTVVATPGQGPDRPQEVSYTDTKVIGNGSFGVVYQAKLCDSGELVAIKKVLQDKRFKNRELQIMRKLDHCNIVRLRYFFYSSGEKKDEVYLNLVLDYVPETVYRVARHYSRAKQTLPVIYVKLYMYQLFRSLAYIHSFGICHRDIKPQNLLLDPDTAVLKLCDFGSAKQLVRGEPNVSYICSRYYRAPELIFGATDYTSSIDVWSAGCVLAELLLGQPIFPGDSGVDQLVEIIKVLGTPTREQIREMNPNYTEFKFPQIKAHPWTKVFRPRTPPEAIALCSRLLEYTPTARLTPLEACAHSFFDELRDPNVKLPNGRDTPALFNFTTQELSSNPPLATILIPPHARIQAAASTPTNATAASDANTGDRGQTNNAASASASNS
TEST: Inhibition of His6-GSK-3β kinase activity (ELISA-based format, time-resolved fluorescence readout)
Format: biochemical
DETAILS: class symbols; read-out: GSK3β IC50
Method: Full-length GSK-3β was amplified from a sequence-verified I.M.A.G.E. EST acquired from Research Genetics (Invitrogen, Clone ID# CSODB003YJ02). […] Inhibitory effects of compounds on baculoviral GSK-3β kinase activity were evaluated using an ELISA-based format in a 384-well FluoroNunc Maxisorp plate (Cat # 460372) with a time-resolved fluorescence readout. […] Inhibition data were analyzed using ActivityBase and IC50 curves were generated using XLFit 3.0.5.
pIC50: −log10 of the molar value.

# COMPOUND, pIC50
rows = [
    ("CN(Cc1cccnc1)c1nc(C2C(=O)Nc3ccc(C#N)cc32)c2cn(C3CCCC3)nc2n1 (stereo not drawn) [Example 172]", "> 6.52"),
    ("N#Cc1ccc2c(c1)C(c1nc(NCCCN3CCOCC3)nc3c1CCC3)C(=O)N2 (stereo not drawn) [Example 340]", "5.52 to 6.52"),
    ("O=C1Nc2ccc(Cl)cc2C1c1nc(NCCc2cccnc2)nc2nn(C3CCCC3)cc12 (stereo not drawn) [Example 279]", "> 6.52"),
    ("CCCn1cc2c(C3C(=O)Nc4ccc(Br)cc43)nc(NCCCN)nc2n1 (stereo not drawn) [Example 199]", "> 6.52"),
    ("O=C1Nc2ccccc2C1c1nc(NCCc2cccnc2)nc2nn(C3CCCC3)cc12 (stereo not drawn) [Example 155]", "5.52 to 6.52"),
]

Ask: # input compound: CC(C)Nc1nc(C2C(=O)Nc3ccc(C(F)(F)F)cc32)c2cn(C3CCCC3)nc2n1 (stereo not drawn) [Example 250] ; wanted: its pIC50
Result: > 6.52

Ask: # input compound: N#Cc1ccc2c(c1)C(c1nc(NCc3ccccn3)nc3c1CCC3)C(=O)N2 (stereo not drawn) [Example 349] ; wanted: its pIC50
Result: 5.52 to 6.52

Ask: # input compound: O=C1Nc2ccc(Br)cc2C1c1nc(NCc2ccccn2)nc2nn(C3CCCC3)cc12 (stereo not drawn) [Example 179] ; wanted: its pIC50
Result: > 6.52

* * *

Collected melting point values appear next to each entry.

Consider the following illustrative entries.
# COMPOUND, melting point
rows = [
    ("CNCCNc1nc(C2C(=O)Nc3ccc(Br)cc32)c2cn(C3CCCC3)nc2n1.Cl (centres unmarked)", "201 to 204 °C"),
    ("CC(C)Cn1cc2c(C3C(=O)Nc4ccc(Br)cc43)nc(NCCN(C)C)nc2n1 (centres unmarked)", "261 to 264.5 °C"),
    ("CCCn1cc2c(C3C(=O)Nc4ccc(S(=O)(=O)N(C)C)cc43)nc(NCCN(C)C)nc2n1 (centres unmarked)", "259 to 263 °C"),
    ("CCCCCn1cc2c(C3C(=O)Nc4ccc(C#N)cc43)nc(NCc3ccncc3)nc2n1 (centres unmarked)", "288 to 290 °C (dec.)"),
    ("C=CCNc1nc(C2C(=O)Nc3ccccc32)c2cn(C3CCCC3)nc2n1 (centres unmarked)", "> 300 °C"),
    ("CCCCCn1cc2c(C3C(=O)Nc4ccc(C(F)(F)F)cc43)nc(NCCCN)nc2n1 (centres unmarked)", "235 °C (dec.)"),
    ("CCCn1cc2c(C3C(=O)Nc4ccc(C#N)cc43)nc(NCCc3ccccn3)nc2n1 (centres unmarked)", "> 300 °C"),
]

Continue with the compound presented below.
Ask: # input compound: CC(C)CNc1nc(C2C(=O)Nc3ccc(C(F)(F)F)cc32)c2cn(C3CCCC3)nc2n1 (centres unmarked) ; wanted: its melting point
Result: 282 to 285 °C
